- SUBJECT OF TEST: T1, hOX40-EC-His (human, UniProt P43489 29-214)
- T1 construct: extracellular domain; bought protein; also called recombinant human OX40 antigen protein; human OX40 extracellular segment antigen; not shown: 6 His label
- T1 sequence (looked up): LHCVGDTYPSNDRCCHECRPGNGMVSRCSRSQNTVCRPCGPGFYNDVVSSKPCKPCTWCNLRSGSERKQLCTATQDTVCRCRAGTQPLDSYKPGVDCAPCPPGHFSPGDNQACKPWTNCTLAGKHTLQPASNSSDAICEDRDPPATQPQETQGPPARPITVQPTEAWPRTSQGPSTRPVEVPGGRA
- PROTOCOL TEXT: ELISA, supernatant diluted 100 times, coated OX40 (CK60)
REPORTED ENDPOINT: 450 nm light absorption (OD450)
Answer format: numeric, OD450 implied, no suffix.

{"BINDER": "35B8-6 (antibody, V domains shown, hybridoma antibody, tested as culture supernatant) VH: QITLKESGPTLVKPTQTLTLTCTFSGFSLSTSAVNVGWIRQPHGKALEWLALIFWNDDKRYSPSLKNRLTITKDTSKDQVVLTMSNMDPVDTATYYCAQYNWNSSFDYWGQGTLVTVSS VL: DIQMTQSPSSLSASLGDRVTITCQASQDINTYLNWYQQKPGKAPKVLIYDASNLETGVPSRFSGSGSGTDFTFTISSLQPEDIATFYCQQYDNLITFGGGTKVEIKR", "UNIT ABBREV": "OD450", "450 nm light absorption": 0.215}

I am curious: what 450 nm light absorption value has been reported for 15A7-6 (antibody, V domains shown, hybridoma antibody, tested as culture supernatant) VH: QVQLQESGPGLVKPSGTLSLTCAVSGGSINSSSWWSWVRQPPGKGLEWIGEIYHSGDTNYNPSLKSRVAISVDKSKNQFSLKLSSVTAADTAVYYCARDQADYFGSGNYVYWGQGTLVTVSS VL: EIVLMQYPGTLSLSSGERRVLSCRPSQSVSSSYLAWYQQKPGQAPRLLIYGASSRASGIPDRFSGSGSGTDFTLTISRLEPEDFAVYYCQQYGSLPITFGQGTRVEIKR ?
1.4

Measured values drawn from patent US20240209104A1 for this set.
